Just for reference, patent US9243281B2 is where these values come from.

Overview of reported Binding competition across a group of compounds:
system: p70 (NAMPT) (Homo sapiens, UniProt P43490)
Construct: endogenous in cells; host or cells: H2122 lung cancer cells
Sequence (P43490 whole entry): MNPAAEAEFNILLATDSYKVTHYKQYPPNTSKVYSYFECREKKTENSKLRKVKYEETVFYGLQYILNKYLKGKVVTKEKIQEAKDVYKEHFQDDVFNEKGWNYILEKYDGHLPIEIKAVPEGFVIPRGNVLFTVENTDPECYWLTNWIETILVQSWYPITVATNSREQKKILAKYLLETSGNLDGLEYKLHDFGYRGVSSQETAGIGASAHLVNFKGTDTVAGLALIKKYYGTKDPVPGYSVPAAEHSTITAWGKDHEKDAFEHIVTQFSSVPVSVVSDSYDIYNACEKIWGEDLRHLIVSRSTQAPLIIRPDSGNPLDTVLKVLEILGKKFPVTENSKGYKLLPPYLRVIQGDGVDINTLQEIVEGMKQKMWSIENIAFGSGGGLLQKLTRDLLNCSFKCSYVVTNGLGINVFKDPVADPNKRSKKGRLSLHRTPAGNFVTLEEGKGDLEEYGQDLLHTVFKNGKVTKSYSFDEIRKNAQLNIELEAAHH
protocol_summary: binding competition for photo-crosslinking of P7C3-S326 to p70 in H2122 cells
condition_context: 0.3 μM P7C3-S326 plus 5 μM competitor, p70 band intensity, P7C3-S326 alone compared with plus competitor, vehicle 1.0
Just the number, please, no unit after it.

OC(CNC1CCCCC1)Cn1c2ccc(Br)cc2c2cc(Br)ccc21 (centres unmarked) ... 1.2
COc1cccc(N(C)CC(F)Cn2c3ccc(Br)cc3c3cc(Br)ccc32)c1 (centres unmarked) ... 2.0
O=S(=O)(CC(O)Cn1c2ccc(Br)cc2c2cc(Br)ccc21)c1ccccc1 (centres unmarked) ... 2.8
O=C(COc1ccc(SCC(O)Cn2c3ccc(Br)cc3c3cc(Br)ccc32)cc1)NCc1ccccc1 (centres unmarked) ... 2.5
OC(CN1c2ccccc2CCc2ccccc21)Cn1ccc2ccccc21 (centres unmarked) ... 1.3
CN(C)C[C@H](O)CN1c2ccccc2CCc2ccccc21 ... 0.9
CS(=O)(=O)NC(=O)Cn1c2ccc(Br)cc2c2cc(Br)ccc21 ... 0.9
CNCC(O)CN1c2ccccc2CCc2ccccc21 (centres unmarked) ... 1.3
OC(CNc1ccccn1)Cn1c2ccc(Br)cc2c2cc(Br)ccc21 (centres unmarked) ... 4.2
OC(CSc1ccccc1)Cn1c2ccc(Br)cc2c2cc(Br)ccc21 (centres unmarked) ... 2.0

The reported Binding competition of the compound N#Cc1cc2c3cc(Br)ccc3n(CC(O)COc3ccccc3)c2cn1 (centres unmarked) was 4.2

So for Cc1ccc2c(c1)c1c(n2CC(O)CNc2ccccc2)CCN(C)C1 (centres unmarked) , the logged Binding competition turned out to be 1.9

Given item O=C(O)c1cc2c(cn1)[nH]c1ccc(Br)cc12 , the value recorded as its Binding competition is 1.4

NC(=O)c1ccc2c(c1)c1cc(Br)ccc1n2CC(O)COc1ccccc1 (centres unmarked) yielded Binding competition of 2.8

Quick note, Binding competition for Nc1ccc[n+](CC(O)Cn2c3ccc(Br)cc3c3cc(Br)ccc32)c1 (centres unmarked) landed at 1.4

Per the record, O=C(O)CCc1c[nH]c2ccccc12 has Binding competition of 1.2

# compound CCC(C)N(C)C(=O)c1cc2ccccc2c(-c2ccccc2Cl)n1 (centres unmarked) [S200, PK11195, reference compound] ; its Binding competition = 1.3

Please fill in: Binding competition reported for COc1c(Br)cc(OC)c2c1c1cc(Br)ccc1n2CC(O)CNc1ccccc1 (centres unmarked) = 4.3

Notebook: COc1ccc(SCC(F)Cn2c3ccc(Br)cc3c3cc(Br)ccc32)cc1 (centres unmarked) , Binding competition read as 0.9

# Binding competition (compound: CN(C)CCC=C1c2ccccc2CCc2ccccc21.Cl [S86, Amitriptyline, reference compound] ) is 1.3
